Provide the recorded TbMCP-1 2º/1º ratio for the entries that follow.
- tgt: TbMCP-1 (Trypanosoma brucei)
- Sequence (Q386R0 entry or part of it): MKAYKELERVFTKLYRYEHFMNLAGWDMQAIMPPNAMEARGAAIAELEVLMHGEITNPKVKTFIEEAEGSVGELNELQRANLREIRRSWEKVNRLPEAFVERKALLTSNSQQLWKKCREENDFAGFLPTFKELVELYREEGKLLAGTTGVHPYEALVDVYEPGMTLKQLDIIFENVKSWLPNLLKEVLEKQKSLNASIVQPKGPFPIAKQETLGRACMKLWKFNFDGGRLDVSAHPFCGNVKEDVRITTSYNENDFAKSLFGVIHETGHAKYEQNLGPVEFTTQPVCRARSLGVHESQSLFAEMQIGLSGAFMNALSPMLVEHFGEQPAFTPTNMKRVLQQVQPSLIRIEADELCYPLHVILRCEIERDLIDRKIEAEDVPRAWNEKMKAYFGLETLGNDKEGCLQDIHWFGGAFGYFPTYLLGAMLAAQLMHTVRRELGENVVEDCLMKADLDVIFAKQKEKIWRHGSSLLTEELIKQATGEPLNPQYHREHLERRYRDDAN
- assay.notes: Continuous fluorogenic (FRET) TbMCP-1 assay with Abz-RFFK(Dnp)-OH, primary and secondary screening
- Assay type: biochemical
- conditions.used: secondary (31,5 µM) / primary (25 µM) inhibition
- Experimental: TcMCP-1 (MEROPS ID: M32.003) and TbMCP-1 were expressed as GST fusion proteins in E. coli BL21 (DE3) Codon Plus and purified as previously described. […] Then, 40 μL of 100 mM MOPS, 0,01% Triton X-100 pH 7,2 containing TbMCP-1 (2,50 nM) or TcMCP-1 (0,34 nM) were added to each well, plates were homogenized (30 seg, orbital, medium intensity) and each well subjected to a single autofluorescence read (ex/em = 320/420 nm). […]

-- ask TbMCP-1 2º/1º ratio lookup needed for N#Cc1ccc(S(=O)(=O)N2CCN(Cc3cccc(-c4ccncc4)c3)CC2)cc1 , thanks.
-- reply 2,14

-- ask Item under review: Cc1cc(C#N)c([N+](=O)[O-])cc1Br . Reported TbMCP-1 2º/1º ratio?
-- reply 0,20

-- ask Recorded TbMCP-1 2º/1º ratio for Cl.NS(=O)(=O)c1ccc(Nc2ncc3cccc(OC4CCNCC4)c3n2)cc1 , please?
-- reply 0,99

-- ask Name the reported TbMCP-1 2º/1º ratio value associated with the compound O=C(N[C@H](CO)c1ccccc1)c1ccc(-c2c[nH]c3nccc(C(F)(F)F)c23)s1
-- reply 0,78

-- ask Fill in: TbMCP-1 2º/1º ratio of O=C(Nc1nc2cc(Cl)ccc2o1)c1cccc(Cl)c1 is ___
-- reply -0,04

-- ask // lookup TbMCP-1 2º/1º ratio for O=C(c1cccc(Cl)c1Cl)N1CCn2c1nc(-c1ccncc1)cc2=O
-- reply 1,13

-- ask Can you share its TbMCP-1 2º/1º ratio? I mean this compound: CCOC(=O)c1cn[nH]c1S(=O)(=O)N1CCC1c1ccccc1 (stereo not drawn)
-- reply 1,04

-- ask Report TbMCP-1 2º/1º ratio for CCC1Oc2cc(S(=O)(=O)N(C)CC(=O)N3CCc4ccccc4C3)c(C)cc2NC1=O (stereo not drawn) please.
-- reply 1,03

-- ask Any idea what TbMCP-1 2º/1º ratio was measured for Cl.Cl.O=c1cc(NCCCNCc2cc(C(F)(F)F)cs2)[nH]c2ccccc12 ?
-- reply 1,27

====

- tgt: TcMCP-1 (Trypanosoma cruzi)
- Sequence (Q6ZXC0 entry or part of it): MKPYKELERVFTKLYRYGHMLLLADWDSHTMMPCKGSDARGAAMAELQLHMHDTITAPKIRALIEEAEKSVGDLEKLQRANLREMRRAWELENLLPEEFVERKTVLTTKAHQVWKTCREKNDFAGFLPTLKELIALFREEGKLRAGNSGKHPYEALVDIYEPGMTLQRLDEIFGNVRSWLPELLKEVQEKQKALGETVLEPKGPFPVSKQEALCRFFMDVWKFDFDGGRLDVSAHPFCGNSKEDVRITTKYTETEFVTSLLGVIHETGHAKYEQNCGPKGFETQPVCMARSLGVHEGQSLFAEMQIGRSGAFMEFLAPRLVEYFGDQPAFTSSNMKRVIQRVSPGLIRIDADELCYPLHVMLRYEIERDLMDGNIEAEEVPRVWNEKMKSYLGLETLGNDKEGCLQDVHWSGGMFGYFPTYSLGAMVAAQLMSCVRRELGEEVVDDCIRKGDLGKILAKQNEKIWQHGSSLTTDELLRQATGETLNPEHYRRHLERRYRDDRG
- assay.notes: Continuous fluorogenic (FRET) TcMCP-1 assay with Abz-LKFK(Dnp)-OH, primary and secondary screening
- Type: biochemical
- conditions.used: single inhibitor concentration 31,5 µM
Can you tell me TcMCP-1 Secondary screening Inhibition (%) for the items I'm about to list?

-- ask State its TcMCP-1 Secondary screening Inhibition (%) on TcMCP-1 (Trypanosoma cruzi): COc1cccc(-c2cc(C(F)(F)F)nc(-n3ccc([N+](=O)[O-])n3)n2)c1 [TCMDC-143105]
-- reply 17,76%

-- ask Please provide the recorded TcMCP-1 Secondary screening Inhibition (%) for O=C(O)C(F)(F)F.O=C(O)C(F)(F)F.O=C1COC(c2ccccc2)(c2ccccc2)CN1C1CCN(Cc2ccc(-n3ccnc3)cc2)CC1 [TCMDC-143543] , tested on TcMCP-1 (Trypanosoma cruzi).
-- reply 31,11%

-- ask Record CC(C)Oc1cccc(N2CCC(C(=O)N3CCCN(C(C)C)CC3)CC2)c1.Cl [TCMDC-143432] : what is its TcMCP-1 Secondary screening Inhibition (%) with TcMCP-1 (Trypanosoma cruzi)?
-- reply 53,96%

-- ask Item O=C(NNC(=O)c1ccccn1)c1ccc(-c2ccccc2)cc1 [TCMDC-143263] with TcMCP-1 (Trypanosoma cruzi) - TcMCP-1 Secondary screening Inhibition (%)?
-- reply 14,84%

-- ask Observed TcMCP-1 Secondary screening Inhibition (%) on TcMCP-1 (Trypanosoma cruzi) for C[C@@H](Oc1cc(-n2cnc3ccc(O[C@H]4CCNC4)cc32)sc1C(N)=O)c1ccccc1Cl [TCMDC-143515] , please.
-- reply 55,47%

-- ask Lab note: need TcMCP-1 Secondary screening Inhibition (%) for COc1cc(Nc2nccc(Nc3onc(C)c3C)n2)cc(S(=O)(=O)C2CCOCC2)c1 [TCMDC-143462] on TcMCP-1 (Trypanosoma cruzi), anyone have it?
-- reply 60,29%

-- ask Param readout = TcMCP-1 Secondary screening Inhibition (%); param system = TcMCP-1 (Trypanosoma cruzi); param query = COc1ccc(S(=O)(=O)Nc2ccc(CN3CCN(C(=O)c4cccc(C#N)c4)CC3)cc2)cc1.O=C(O)C(F)(F)F [TCMDC-143496] ; response: value
-- reply 45,37%

-- ask TcMCP-1 Secondary screening Inhibition (%) of Cc1cc(C)c(C#N)c(SCC(=O)c2ccc3c(c2)OCO3)n1 [TCMDC-143625] on TcMCP-1 (Trypanosoma cruzi)?
-- reply 19,89%
